# tested target: SSTR2 (Homo sapiens)
# Sequence (P30874 whole entry): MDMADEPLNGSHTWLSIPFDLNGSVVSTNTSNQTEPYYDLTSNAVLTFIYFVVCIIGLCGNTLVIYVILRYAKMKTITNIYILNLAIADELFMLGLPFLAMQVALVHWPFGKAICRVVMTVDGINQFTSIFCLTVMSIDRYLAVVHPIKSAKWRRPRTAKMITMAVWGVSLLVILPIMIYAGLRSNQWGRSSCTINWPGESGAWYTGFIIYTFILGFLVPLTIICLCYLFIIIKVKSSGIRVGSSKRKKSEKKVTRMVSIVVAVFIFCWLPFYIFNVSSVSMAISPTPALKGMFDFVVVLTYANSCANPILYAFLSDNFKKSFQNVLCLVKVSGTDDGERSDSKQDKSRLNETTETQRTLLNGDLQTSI
# procedure text: SSTR binding affinity by radioligand binding competition assay ([125I]-Tyr11-Somatostatin, membrane extracts)
# condition description: radioligand competition, [125I]-Tyr11-Somatostatin 0.1 nM, membrane extracts; Ki from IC50 by Cheng Prusoff; read-out: SSTR2 Ki
pKi: −log10 of the molar value. Numbered stars: 1 amine (or outer) side, 2 acyl side, 3 side chain; on linkers, the order of the positions; unused ones are H or OH. Square brackets hold non-standard residues; d marks the D form. Peptide text beside a SMILES is read from it. * marks the point of attachment. DOTA(Lu)NH(CH2)6NHCOCH2 = O=C(CN1CCN2CCN3CCN(CC1)CC(=O)[O][Lu]([O]C(=O)C2)[O]C(=O)C3)NCCCCCCNC(=O)C*; DOTA(Lu) = O=C1CN2CCN3CCN(CC(=O)*)CCN(CC2)CC(=O)[O][Lu]([O]1)[O]C(=O)C3; Ala(piperidin-4-yl) = O=C([C@H](CC1CCN([*:3])CC1)N[*:1])[*:2]; dTrp(βS-Me) = C[C@@H](c1c[nH]c2ccccc12)[C@@H](N)C(=O)O; Dip = N[C@H](C(=O)O)C(c1ccccc1)c1ccccc1; 3Pal = N[C@@H](Cc1cccnc1)C(=O)O; NMehCys = CN[C@@H](CCS)C(=O)O; NMeK = CN[C@@H](CCCCN)C(=O)O; NMeC = CN[C@@H](CS)C(=O)O
// reported pKi per item

// sample C[C@@H](O)[C@@H]1NC(=O)[C@H](CCCCN)NC(=O)[C@@H](Cc2c[nH]c3ccccc23)NC(=O)[C@H](Cc2cccnc2)NC(=O)[C@H](CSCC(=O)NCCCCCCNC(=O)CN2CCN3CCN4CCN(CC2)CC(=O)[O][Lu]([O]C(=O)C3)[O]C(=O)C4)N(C)C(=O)[C@H](Cc2ccccc2)NC1=O [RB-0002946] (cyclo([3Pal][dW]KTF[NMeC](DOTA(Lu)NH(CH2)6NHCOCH2))) , its pKi was 7.48 to 8.00

Short answer for C[C@@H](O)[C@@H]1NC(=O)[C@H](CC2CCNCC2)NC(=O)[C@@H]([C@@H](C)c2c[nH]c3ccccc23)NC(=O)[C@H](C(c2ccccc2)c2ccccc2)NC(=O)[C@H](CCCCNC(=O)CN2CCN3CCN4CCN(CC2)CC(=O)[O][Lu]([O]C(=O)C3)[O]C(=O)C4)N(C)C(=O)[C@H](Cc2ccccc2)NC1=O [RB-0006239] (cyclo([Dip][dTrp(βS-Me)][Ala(piperidin-4-yl)]TF[NMeK](DOTA(Lu)))) : pKi was 7.48 to 8.00

Entry under test: C[C@@H](O)[C@@H]1NC(=O)[C@H](CCCCN)NC(=O)[C@@H](Cc2c[nH]c3ccccc23)NC(=O)[C@H](Cc2ccc(O)cc2)NC(=O)[C@H](CCSCC(=O)NCCCCCCNC(=O)CCC(C(=O)O)N2CCN3CCN4CCN(CC2)CC(=O)[O][Lu]([O]C(=O)C4)[O]C(=O)C3)N(C)C(=O)[C@H](Cc2ccccc2)NC1=O (some centres unmarked) . Its pKi was > 9.00

Item: CC(C)[C@@H]1NC(=O)[C@H](CCCCN)NC(=O)[C@@H](Cc2c[nH]c3ccccc23)NC(=O)[C@H](Cc2ccc(O)cc2)NC(=O)[C@H](CCSCC(=O)NCCCCCCNC(=O)CN2CCN3CCN4CCN(CC2)CC(=O)[O][Lu]([O]C(=O)C3)[O]C(=O)C4)N(C)C(=O)[C@H](Cc2cnc[nH]2)NC1=O [RB-0005255] (cyclo(H[NMehCys](DOTA(Lu)NH(CH2)6NHCOCH2)Y[dW]KV)) | pKi: 8.48 to 9.00

The reported value for C[C@@H](O)[C@@H]1NC(=O)[C@H](CC2CCNCC2)NC(=O)[C@@H](Cc2c[nH]c3ccccc23)NC(=O)[C@H](Cc2ccc(O)cc2)NC(=O)[C@H](CCCCNC(=O)CN2CCN3CCN4CCN(CC2)CC(=O)[O][Lu]([O]C(=O)C3)[O]C(=O)C4)N(C)C(=O)[C@H](Cc2ccc(O)cc2)NC1=O [RB-0005983] (cyclo([NMeK](DOTA(Lu))Y[dW][Ala(piperidin-4-yl)]TY)) in terms of pKi is 8.00 to 8.48
